What IC50 was measured for each of the following?
target-entity: T1, human myostatin (mature, recombinant; R&D Systems) (human, UniProt O14793 267-375)
T1 construct: biotinylated in the mRNA display selection; also called GDF-8; mature myostatin
T1 sequence: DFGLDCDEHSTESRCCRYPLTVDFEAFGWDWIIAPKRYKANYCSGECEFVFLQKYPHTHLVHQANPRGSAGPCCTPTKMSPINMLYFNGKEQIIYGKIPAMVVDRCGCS
assay-comment: competitive HTRF, alanine scan
Give bare numbers, in nM.

• 3116_A06 K87A (designed binder) MGVSDVPRDLEVVAATPTSLLISWSLPHQGKANYYRITYGETGGNSPVQEFTVPGRGVTATISGLKPGVDYTITVYAVTVTDTGYLAYKPISINYRTEIDKPSQHHHHHH = 0.8

Entry under test: 3116_A06 K89A (designed binder) MGVSDVPRDLEVVAATPTSLLISWSLPHQGKANYYRITYGETGGNSPVQEFTVPGRGVTATISGLKPGVDYTITVYAVTVTDTGYLKYAPISINYRTEIDKPSQHHHHHH . Its IC50 was 0.7
